Reference source for all entries: patent US9273092B2

biological target: hSA (Homo sapiens, UniProt P02768); assay: hSA binding assay (hSA-coated microtiter plate, streptavidin-polyHRP/ABTS, OD 405 nm)
Sequence (P02768 25-609): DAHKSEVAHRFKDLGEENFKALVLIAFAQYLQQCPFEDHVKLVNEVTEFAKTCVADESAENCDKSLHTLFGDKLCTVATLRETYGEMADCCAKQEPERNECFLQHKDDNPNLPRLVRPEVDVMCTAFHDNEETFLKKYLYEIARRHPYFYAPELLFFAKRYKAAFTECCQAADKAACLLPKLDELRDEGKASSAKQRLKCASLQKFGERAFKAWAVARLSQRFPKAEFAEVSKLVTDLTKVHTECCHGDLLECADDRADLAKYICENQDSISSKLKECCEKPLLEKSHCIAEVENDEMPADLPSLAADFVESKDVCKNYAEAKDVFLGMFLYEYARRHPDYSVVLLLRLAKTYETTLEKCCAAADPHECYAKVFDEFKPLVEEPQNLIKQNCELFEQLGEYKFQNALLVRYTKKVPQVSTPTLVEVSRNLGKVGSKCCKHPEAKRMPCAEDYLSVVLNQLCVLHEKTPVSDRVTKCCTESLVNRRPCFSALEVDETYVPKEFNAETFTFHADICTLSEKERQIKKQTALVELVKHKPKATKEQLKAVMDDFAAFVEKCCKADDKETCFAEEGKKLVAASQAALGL
metric: Binding, Exp 1

Worked examples follow.
[[record]]
monomer_sequence = "KLIEEICPCLW [Compound 28, KLIEEI-LW, \"-\" represents cysteine-proline-cysteine]"
recorded_value = 0.09642

[[record]]
monomer_sequence = "RLIEDECPCLW [Compound 58, RLIEDE-LW, \"-\" represents cysteine-proline-cysteine]"
recorded_value = 0.8196


A = RLIEDICPCLV [Compound 43, RLIEDI-LV, "-" represents cysteine-proline-cysteine]
B = KIIEDICPCLW [Compound 62, KIIEDI-LW, "-" represents cysteine-proline-cysteine]
C = KLIEDICPCFW [Compound 30, KLIEDI-FW, "-" represents cysteine-proline-cysteine]
D = RLIEDICPCLQ [Compound 65, RLIEDI-LQ, "-" represents cysteine-proline-cysteine]
Put the items in order so that reported Binding, Exp 1 rises from first to last. As an answer, provide the labels arranged in the order called for.
C, A, B, D
(C: 0.1033, A: 0.1701, B: 1.415, D: 5.789)

a = KLIEDACPCLW [Compound 39, KLIEDA-LW, "-" represents cysteine-proline-cysteine]
b = RLEEDICPCLW [Compound 17, RLEEDI-LW, "-" represents cysteine-proline-cysteine]
Param pair: a , b . Output: the one whose Binding, Exp 1 is numerically greater. Record your answer as the label of the chosen record.
a
(a: 0.153, b: 0.0625)

----------
target: hSA (Homo sapiens, UniProt P02768); experiment: hSA binding assay (hSA-coated microtiter plate, streptavidin-polyHRP/ABTS, OD 405 nm); conditions: given only for compounds with an Exp 2 value
metric: Bmax

[[record]]
monomer_sequence = "KEIEDICPCLW [Compound 93, KEIEDI-LW, \"-\" represents cysteine-proline-cysteine]"
recorded_value = 1.425

[[record]]
monomer_sequence = "KLIVDICPCLW [Compound 95, KLIVDI-LW, \"-\" represents cysteine-proline-cysteine]"
recorded_value = 1.19

[[record]]
monomer_sequence = "KTIEDICPCLW [Compound 22, KTIEDI-LW, \"-\" represents cysteine-proline-cysteine]"
recorded_value = 1.427

[[record]]
monomer_sequence = "RLIEDICPCLW [Compound 50, RLIEDI-LW, \"-\" represents cysteine-proline-cysteine]"
recorded_value = 1.14

[[record]]
monomer_sequence = "RLIADICPCLW [Compound 4, RLIADI-LW, \"-\" represents cysteine-proline-cysteine]"
recorded_value = 1.036


A = RFIEDICPCLW [Compound 8, RFIEDI-LW, "-" represents cysteine-proline-cysteine]
B = RIIEDICPCLW [Compound 40, RIIEDI-LW, "-" represents cysteine-proline-cysteine]
Which of these two has the smaller recorded Bmax: A or B ? Select an item and report its label.
B
(B: 0.6826, A: 1.136)

----------
biological target: hSA (Homo sapiens); assay: hSA binding assay (hSA-coated microtiter plate, streptavidin-polyHRP/ABTS, OD 405 nm)
metric: Binding, Exp 2

[[record]]
monomer_sequence = "RLIQICPCLW [Compound 97, RLIQI-LW, \"-\" represents cysteine-proline-cysteine]"
recorded_value = 0.1909


P = RLIADICPCLW [Compound 4, RLIADI-LW, "-" represents cysteine-proline-cysteine]
Q = KIIEDICPCLW [Compound 62, KIIEDI-LW, "-" represents cysteine-proline-cysteine]
R = RLIEDICPCLW [Compound 50, RLIEDI-LW, "-" represents cysteine-proline-cysteine]
Parameters: sort_field (Binding, Exp 2), sort_dir (desc). # respond with the labels, arranged in the requested order
R, Q, P

P = RVIEDICPCLW [Compound 19, RVIEDI-LW, "-" represents cysteine-proline-cysteine]
Q = KLIYDICPCLW [Compound 29, KLIYDI-LW, "-" represents cysteine-proline-cysteine]
Dear colleague, could you let me know whether P or Q has the lower recorded Binding, Exp 2? Thanks. # reply format: chosen label
Q

A = RTIEDICPCLW [Compound 99, RTIEDI-LW, "-" represents cysteine-proline-cysteine]
B = KEIEDICPCLW [Compound 93, KEIEDI-LW, "-" represents cysteine-proline-cysteine]
C = KLIADICPCLW [Compound 46, KLIADI-LW, "-" represents cysteine-proline-cysteine]
D = KFIEDICPCLW [Compound 13, KFIEDI-LW, "-" represents cysteine-proline-cysteine]
Rank entries according to their Binding, Exp 2, from the largest number down. Return the labels ranked in the requested order, please.
D, B, A, C
(D: 0.4961, B: 0.257, A: 0.1598, C: 0.1074)

1 = KTIEDICPCLW [Compound 22, KTIEDI-LW, "-" represents cysteine-proline-cysteine]
2 = LKIKDICPCLW [Compound 94, LKIKDI-LW, "-" represents cysteine-proline-cysteine]
Looking at 1 and 2 , which one comes out lower in Binding, Exp 2 terms? Answer format: the label of the selected item.
1
(1: 0.1476, 2: 0.2987)
